tested on: Streptococcus sp. 'group A'; assay: growth inhibition of control SK(-) GAS strain, dose response, counter-screen for streptokinase expression inhibitor project, luminescence, kanamycin, BacTiterGlo, confirmation (AID 1900); format: functional, organism-based
Active and inactive are the calls of the source.

[
  {
    "SMILES_REPRESENTATION": "COc1ccc(Cl)cc1C(=O)NNC(=S)NC(=O)c1cc(-c2ccccc2)nc2ccccc12",
    "EC50": "1.31 µM (active)"
  },
  {
    "SMILES_REPRESENTATION": "Cc1nn(-c2ccccc2)c(C)c1/C=N/NC(=O)c1cc(C23CC4CC(CC(C4)C2)C3)[nH]n1",
    "EC50": "5.31 µM (active)"
  },
  {
    "SMILES_REPRESENTATION": "Oc1ccccc1/N=C/c1c(O)ccc2oc3c(c12)CCCC3",
    "EC50": "7.61 µM (active)"
  },
  {
    "SMILES_REPRESENTATION": "O=C(N/N=C\\C=C\\c1ccc([N+](=O)[O-])o1)c1cccs1",
    "EC50": "3.56 µM (active)"
  },
  {
    "SMILES_REPRESENTATION": "CCN1/C(=C/C=C/c2sc3ccccc3[n+]2CC)Sc2ccccc21",
    "EC50": "2.54 µM (active)"
  },
  {
    "SMILES_REPRESENTATION": "COc1ccccc1/C=N\\Nc1cc(C)nc(-n2nc(C)cc2C)n1",
    "EC50": "7.45 µM (active)"
  },
  {
    "SMILES_REPRESENTATION": "COc1ccc(-c2[nH]ncc2N=Nc2cc(C)cc(C)c2)cc1",
    "EC50": "23.1 µM (active)"
  },
  {
    "SMILES_REPRESENTATION": "Cc1ccc(Nc2nc(N/N=C\\c3ccc4c(c3)OCO4)nc(N3CCOCC3)n2)cc1",
    "EC50": "21.8 µM (active)"
  }
]

---

molecular target: Carboxy-terminal domain RNA polymerase II polypeptide A small phosphatase 1 (Homo sapiens, UniProt Q9GZU7); test: inhibitors of CTDSP1, concentration-response testing, biochemical assay, absorbance-based, actives from ultra-high-throughput screening (AID 540297); type: functional
Sequence (Q9GZU7 whole entry, the tested form may be a part): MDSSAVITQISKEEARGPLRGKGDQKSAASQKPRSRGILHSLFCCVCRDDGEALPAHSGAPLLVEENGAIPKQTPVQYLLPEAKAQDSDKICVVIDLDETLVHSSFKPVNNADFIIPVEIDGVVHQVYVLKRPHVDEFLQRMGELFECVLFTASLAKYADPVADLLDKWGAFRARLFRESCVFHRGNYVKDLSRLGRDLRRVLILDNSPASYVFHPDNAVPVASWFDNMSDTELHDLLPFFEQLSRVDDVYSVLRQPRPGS
The source made the active and inactive calls.

[
  {
    "COMPOUND": "C/C(=N\\NC(=O)c1cc(-c2cccc([N+](=O)[O-])c2)[nH]n1)c1ccccc1O",
    "IC50": "1.7 µM (active)"
  },
  {
    "COMPOUND": "O=C(N=C1NCCS1)C1CCN(S(=O)(=O)c2cc([N+](=O)[O-])ccc2Cl)CC1",
    "IC50": "3.39 µM (active)"
  },
  {
    "COMPOUND": "O=C(NC1CCC(O)CC1)c1cc(-c2ccco2)nc2ccccc12 (configuration not stated)",
    "IC50": "5.9 µM (active)"
  },
  {
    "COMPOUND": "COc1ccc2c(c1)c(=O)oc1cc(OCC(=O)NC3CCCCC3)ccc12",
    "IC50": "6.74 µM (active)"
  },
  {
    "COMPOUND": "O=C(CCS(=O)(=O)c1ccc(Br)cc1)NC1CCCC1",
    "IC50": "9.44 µM (active)"
  },
  {
    "COMPOUND": "O=C(CSc1nnc(Nc2ccccc2F)s1)NC(=O)CN1CCCC1=O",
    "IC50": "5.43 µM (active)"
  },
  {
    "COMPOUND": "O=C(Nc1ccc2c(c1)C(=O)NC2=O)c1cccc(C(F)(F)F)c1",
    "IC50": "9.33 µM (active)"
  },
  {
    "COMPOUND": "O=C(COC(=O)c1ccccc1O)NCc1ccco1",
    "IC50": "9.53 µM (active)"
  },
  {
    "COMPOUND": "COc1ccc(CN2C(=O)NC(=O)/C(=C\\c3ccco3)C2=O)cc1",
    "IC50": "3.91 µM (active)"
  },
  {
    "COMPOUND": "COC(=O)c1ccc(N2NC(=O)/C(=C/c3ccc(-c4ccc(Cl)c(C(=O)O)c4)o3)C2=O)cc1",
    "IC50": "2.15 µM (active)"
  },
  {
    "COMPOUND": "O=C(N/N=C/c1ccncc1)c1ccc(NC(=O)c2cccc(Cl)c2)cc1",
    "IC50": "13.9 µM (active)"
  },
  {
    "COMPOUND": "CC[N+]1(C)CC2CCC(C)(C1)C2(C)C (configuration not stated)",
    "IC50": "27.8 µM (active)"
  }
]

---

Molecular target: Replicative DNA helicase DnaB (Mycobacterium tuberculosis)
Sequence (P9WMR3 whole entry): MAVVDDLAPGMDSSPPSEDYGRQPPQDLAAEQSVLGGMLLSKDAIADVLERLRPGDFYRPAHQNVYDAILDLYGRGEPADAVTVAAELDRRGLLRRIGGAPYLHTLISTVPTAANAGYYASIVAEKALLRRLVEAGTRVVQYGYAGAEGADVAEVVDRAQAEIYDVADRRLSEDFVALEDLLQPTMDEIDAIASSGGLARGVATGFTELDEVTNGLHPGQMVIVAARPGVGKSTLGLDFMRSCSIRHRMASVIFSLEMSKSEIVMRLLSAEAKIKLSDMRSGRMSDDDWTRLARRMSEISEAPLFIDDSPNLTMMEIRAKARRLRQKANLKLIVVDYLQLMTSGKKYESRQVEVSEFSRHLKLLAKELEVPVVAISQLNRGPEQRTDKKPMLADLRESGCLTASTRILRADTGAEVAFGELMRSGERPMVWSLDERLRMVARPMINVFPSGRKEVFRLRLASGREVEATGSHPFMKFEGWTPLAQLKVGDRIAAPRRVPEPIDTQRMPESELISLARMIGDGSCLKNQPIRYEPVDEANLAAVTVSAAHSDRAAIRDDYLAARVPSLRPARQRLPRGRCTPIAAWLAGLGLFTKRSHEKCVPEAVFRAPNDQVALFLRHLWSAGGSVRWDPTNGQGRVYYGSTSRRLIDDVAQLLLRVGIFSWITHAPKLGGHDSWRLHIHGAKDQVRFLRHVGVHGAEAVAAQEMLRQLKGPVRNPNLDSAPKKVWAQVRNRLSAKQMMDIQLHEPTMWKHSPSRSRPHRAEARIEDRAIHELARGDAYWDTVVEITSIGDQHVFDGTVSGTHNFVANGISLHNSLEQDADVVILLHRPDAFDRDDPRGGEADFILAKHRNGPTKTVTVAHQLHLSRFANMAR
Assay: DnaB intein splicing inhibitors, dose response, biochemical, cell-free fluorescence (AID 449749)
Type: functional
Calls of active or inactive are those of the source.
REPORTED_ENDPOINT: AC50

[
  {
    "SMILES_REPRESENTATION": "CCOc1cc(/C=C(\\C#N)C(=O)Nc2cccc(C(=O)O)c2)cc(Br)c1OC(=O)c1ccc(OC)cc1",
    "REPORTED_ENDPOINT": "AC50",
    "RESULT": "4.04 µM (active)"
  },
  {
    "SMILES_REPRESENTATION": "C/C(CC(=O)Nc1cc(C)ccn1)=N\\NC(=O)C(=O)NC(C)C",
    "REPORTED_ENDPOINT": "AC50",
    "RESULT": "19.6 µM (active)"
  },
  {
    "SMILES_REPRESENTATION": "Cc1cc(C)c(S(C)(=O)=O)c(Oc2cccc(C(F)(F)F)c2)n1",
    "REPORTED_ENDPOINT": "AC50",
    "RESULT": "213 µM (active)"
  },
  {
    "SMILES_REPRESENTATION": "CCOc1cc(/C=C2\\C(=N)N3N=C(S(=O)(=O)CC)SC3=NC2=O)ccc1OC(=O)c1ccco1",
    "REPORTED_ENDPOINT": "AC50",
    "RESULT": "> 380 µM (inactive)"
  },
  {
    "SMILES_REPRESENTATION": "COc1cccc(C(=O)O/N=C(\\N)c2ccc([N+](=O)[O-])cc2)c1OC",
    "REPORTED_ENDPOINT": "AC50",
    "RESULT": "> 380 µM (inactive)"
  },
  {
    "SMILES_REPRESENTATION": "COc1ccccc1-c1c(C)oc2cc(OC(=O)c3ccco3)ccc2c1=O",
    "REPORTED_ENDPOINT": "AC50",
    "RESULT": "21.8 µM (active)"
  },
  {
    "SMILES_REPRESENTATION": "CC(=O)n1cc(N(C(=O)CCl)c2ccc(Cl)cc2)c2ccccc21",
    "REPORTED_ENDPOINT": "AC50",
    "RESULT": "1.27 µM (active)"
  }
]
